Experiment: Volume of distribution in rat administered as methocel suspension
Format: ADME, organism-based
Conditions: in vivo
Recorded measurements of Vd, one per entry
The answer is to be given in L/kg; state only the numeric part.

# count of solved cases: 4
CC(C)CCN1C(=O)C(NC(=O)Nc2ccccc2)C(=O)N(CCN(C)C)c2ccccc21 (racemic)
3.1
O=C(Nc1ccccc1)NC1C(=O)N(CCN2CCOCC2)c2cc(F)ccc2N(CC23CC4CC(CC(C4)C2)C3)C1=O (single isomer, unassigned; (-))
2.2
CN(C)CCN1C(=O)C(NC(=O)Nc2ccccc2)C(=O)N(CC23CC4CC(CC(C4)C2)C3)c2ccccc21 (racemic)
2.7
O=C(Nc1ccccc1)NC1C(=O)N(CCN2CCOCC2)c2ccccc2N(CC23CC4CC(CC(C4)C2)C3)C1=O (racemic)
1

Kindly consider the entry below.
Query block: Returns the measured Vd for the input compound. Input: CC(C)CCN1C(=O)C(NC(=O)Nc2ccccc2)C(=O)N(CCN2CCOCC2)c2ccccc21 (racemic)
Result block: 1.1

====

Recorded measurements of Ki selectivity ratio (CCK1 Ki / CCK2 Ki), one per entry
Assay: Selectivity ratio of pKi for guinea pig brain CCK2 receptor to pKi for rat pancreas CCK1

# count of solved cases: 3
CC(C)CCN1C(=O)C(NC(=O)Nc2ccccc2C(C)C)C(=O)N(CCN2CCOCC2)c2ccccc21 (racemic)
78
Cc1cccc(NC(=O)NC2C(=O)N(CCN3CCOCC3)c3ccccc3N(CC3CCCCC3)C2=O)c1 (racemic)
316
CCOc1ccc(NC(=O)NC2C(=O)N(CCC(C)C)c3ccccc3N(CCN3CCOCC3)C2=O)cc1 (racemic)
148

Kindly consider the entry below.
Query block: Returns the measured Ki selectivity ratio (CCK1 Ki / CCK2 Ki) for the input compound. Input: CCN(CC)CCN1C(=O)C(NC(=O)Nc2ccc(F)cc2)C(=O)N(CC23CC4CC(CC(C4)C2)C3)c2ccccc21 (racemic)
Result block: 851

====

Assay: Clearance in rat administered as methocel suspension
Assay type: ADME, organism-based
Settings: in vivo
Recorded measurements of clearance, one per entry
The answer is to be given in mL/min; state only the numeric part.

O=C(Nc1ccccc1)NC1C(=O)N(CCN2CCOCC2)c2ccccc2N(CC23CC4CC(CC(C4)C2)C3)C1=O (racemic)
12
CC(C)CCN1C(=O)C(NC(=O)Nc2ccccc2)C(=O)N(CCN(C)C)c2ccccc21 (racemic)
37
CN(C)CCN1C(=O)C(NC(=O)Nc2ccccc2)C(=O)N(CC23CC4CC(CC(C4)C2)C3)c2ccccc21 (racemic)
28
O=C(Nc1ccccc1)NC1C(=O)N(CCN2CCOCC2)c2cc(F)ccc2N(CC23CC4CC(CC(C4)C2)C3)C1=O (single isomer, unassigned; (-))
23

Kindly consider the entry below.
Query block: Returns the measured clearance for the input compound. Input: CC(C)CCN1C(=O)C(NC(=O)Nc2ccccc2)C(=O)N(CCN2CCOCC2)c2ccccc21 (racemic)
Result block: 34

====

Assay: Selectivity ratio of pKi for guinea pig brain CCK2 receptor to pKi for rat pancreas CCK1
Parameter Measured: Ki selectivity ratio (CCK1 Ki / CCK2 Ki)

CC(C)CCN1C(=O)C(NC(=O)Nc2ccccc2)C(=O)N(CCN2CCCCC2)c2ccccc21 (racemic)
302
O=C(Nc1ccccc1)NC1C(=O)N(CCN2CCCC2)c2ccccc2N(CC23CC4CC(CC(C4)C2)C3)C1=O (racemic)
9120
O=C(Nc1ccccc1)NC1C(=O)N(CCN2CCOCC2)c2ccccc2N(CC23CC4CC(CC(C4)C2)C3)C1=O (stereo in doubt; 55)
170
Cc1cc(Br)ccc1NC(=O)NC1C(=O)N(CCC(C)C)c2ccccc2N(CCN2CCOCC2)C1=O (racemic)
38
CC(C)CCN1C(=O)C(NC(=O)Nc2ccc(F)cc2)C(=O)N(CCN2CCOCC2)c2ccccc21 (racemic)
363

Query block: Returns the measured Ki selectivity ratio (CCK1 Ki / CCK2 Ki) for the input compound. Input: CC(C)CCN1C(=O)C(NC(=O)Nc2ccc(O)cc2)C(=O)N(CCN2CCOCC2)c2ccccc21 (racemic)
Result block: 1120

====

Test: Oral bioavailability in dog administered as methocel suspension
Type: ADME, organism-based, Canis lupus familiaris
Settings: in vivo
Parameter Measured: bioavailability (%)
The answer is to be given in %; state only the numeric part.

O=C(Nc1ccccc1)NC1C(=O)N(CCN2CCOCC2)c2ccccc2N(CC23CC4CC(CC(C4)C2)C3)C1=O (racemic)
9
CC(C)CCN1C(=O)C(NC(=O)Nc2ccccc2)C(=O)N(CCN(C)C)c2ccccc21 (racemic)
40

Query block: Returns the measured bioavailability for the input compound. Input: CC(C)CCN1C(=O)C(NC(=O)Nc2ccccc2)C(=O)N(CCN2CCOCC2)c2ccccc21 (racemic)
Result block: 36

====

Recorded measurements of half-life, one per entry
Test: Half life in dog administered as methocel suspension
Type: ADME, organism-based, Canis lupus familiaris
Conditions: in vivo
The answer is to be given in h; state only the numeric part.

CC(C)CCN1C(=O)C(NC(=O)Nc2ccccc2)C(=O)N(CCN(C)C)c2ccccc21 (racemic)
1.3

Query block: Returns the measured half-life for the input molecule. Input: CC(C)CCN1C(=O)C(NC(=O)Nc2ccccc2)C(=O)N(CCN2CCOCC2)c2ccccc21 (racemic)
Result block: 0.9

Query block: Returns the measured half-life for the input molecule. Input: O=C(Nc1ccccc1)NC1C(=O)N(CCN2CCOCC2)c2ccccc2N(CC23CC4CC(CC(C4)C2)C3)C1=O (racemic)
Result block: 1.6

====

Recorded measurements of pKi, one per entry
Experiment: Displacement of [3H]CCK8 from guinea pig brain CCK2 receptor by liquid scintillation counting
Parameters: species or system Cavia porcellus
Just the number.

# count of solved cases: 4
CC(C)CCN1C(=O)C(NC(=O)Nc2ccccc2)C(=O)N(CCN(C)C)c2ccccc21 (racemic)
8.36
O=C(Nc1ccccc1)NC1C(=O)N(CCN2CCOCC2)c2cc(F)ccc2N(CC23CC4CC(CC(C4)C2)C3)C1=O (single isomer, unassigned; (+))
7.31
COc1ccc(NC(=O)NC2C(=O)N(CCC(C)C)c3ccccc3N(CCN3CCOCC3)C2=O)c(C)c1 (racemic)
7.54
O=C(Nc1ccc(F)cc1)NC1C(=O)N(CCN2CCOCC2)c2ccccc2N(CC23CC4CC(CC(C4)C2)C3)C1=O (racemic)
8.66

Query block: Returns the measured pKi for the input compound. Input: CC(C)CCN1C(=O)C(NC(=O)Nc2ccc(Cl)cc2)C(=O)N(CCN2CCOCC2)c2ccccc21 (racemic)
Result block: 8.71

Query block: Returns the measured pKi for the input compound. Input: CCN(CC)CCN1C(=O)C(NC(=O)Nc2ccccc2)C(=O)N(CC2CCCCC2)c2ccccc21 (stereo in doubt)
Result block: 9.4

Query block: Returns the measured pKi for the input compound. Input: O=C(Nc1ccccc1)NC1C(=O)N(CCN2CCOCC2)c2ccccc2N(CC23CC4CC(CC(C4)C2)C3)C1=O (stereo in doubt; 55)
Result block: 8.03

====

Assay: Solubility of the compound at pH 2.4
Assay type: physicochemical
Details: buffer, read-out: solubility
Recorded measurements of solubility, one per entry
The answer is to be given in µg/mL; state only the numeric part.

# count of solved cases: 2
O=C(Nc1ccccc1)NC1C(=O)N(CCN2CCOCC2)c2cc(F)ccc2N(CC23CC4CC(CC(C4)C2)C3)C1=O (single isomer, unassigned; (-))
360
CN(C)CCN1C(=O)C(NC(=O)Nc2ccccc2)C(=O)N(CC23CC4CC(CC(C4)C2)C3)c2ccccc21 (racemic)
850

Kindly consider the entry below.
Query block: Returns the measured solubility for the input compound. Input: CC(C)CCN1C(=O)C(NC(=O)Nc2ccccc2)C(=O)N(CCN2CCOCC2)c2ccccc21 (racemic)
Result block: 450

====

Biological target: Cholecystokinin receptor type A (Rattus norvegicus, UniProt P30551)
Sequence (P30551 whole entry): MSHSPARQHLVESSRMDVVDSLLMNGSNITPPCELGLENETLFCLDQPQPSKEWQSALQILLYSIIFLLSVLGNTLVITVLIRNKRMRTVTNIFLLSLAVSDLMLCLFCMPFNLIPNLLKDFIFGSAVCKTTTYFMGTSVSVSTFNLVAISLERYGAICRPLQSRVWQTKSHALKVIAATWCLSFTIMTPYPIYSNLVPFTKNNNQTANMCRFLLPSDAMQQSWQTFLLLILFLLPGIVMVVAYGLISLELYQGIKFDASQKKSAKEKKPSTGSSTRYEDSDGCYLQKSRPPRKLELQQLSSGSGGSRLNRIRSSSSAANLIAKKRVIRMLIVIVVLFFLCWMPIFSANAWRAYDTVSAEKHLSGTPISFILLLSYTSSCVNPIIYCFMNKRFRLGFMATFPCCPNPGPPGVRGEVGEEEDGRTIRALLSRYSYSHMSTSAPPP
Test: Displacement of [3H]CCK8 from rat pancreas CCK1 receptor at by liquid scintillation counting
Recorded measurements of pKi, one per entry
To interpret pKi, take it as minus log10 of a concentration measured in moles per litre.

# count of solved cases: 3
O=C(Nc1ccccc1)NC1C(=O)N(CCN2CCOCC2)c2ccccc2N(CC23CC4CC(CC(C4)C2)C3)C1=O (racemic)
5.69
Cc1cccc(NC(=O)NC2C(=O)N(CCN3CCOCC3)c3ccccc3N(CC3CCCCC3)C2=O)c1 (racemic)
6.76
CC(C)CCN1C(=O)C(NC(=O)Nc2ccccc2)C(=O)N(CCN2CCOCC2)c2ccccc21 (racemic)
6.17

Query block: Returns the measured pKi for the input molecule. Input: CN(C)CCN1C(=O)C(NC(=O)Nc2ccccc2)C(=O)N(CC23CC4CC(CC(C4)C2)C3)c2ccccc21 (racemic)
Result block: 5.49

Query block: Returns the measured pKi for the input molecule. Input: CC(C)CCN1C(=O)C(NC(=O)Nc2ccc(F)cc2)C(=O)N(CCN2CCOCC2)c2ccccc21 (racemic)
Result block: 5.84

Query block: Returns the measured pKi for the input molecule. Input: O=C(Nc1ccccc1)NC1C(=O)N(CCN2CCOCC2)c2ccccc2N(CC23CC4CC(CC(C4)C2)C3)C1=O (stereo in doubt; 55)
Result block: 5.80

Query block: Returns the measured pKi for the input molecule. Input: CC(C)CCN1C(=O)C(NC(=O)Nc2ccc(C(F)(F)F)cc2)C(=O)N(CCN2CCOCC2)c2ccccc21 (racemic)
Result block: 5.83

Query block: Returns the measured pKi for the input molecule. Input: CCN(CC)CCN1C(=O)C(NC(=O)Nc2ccccc2)C(=O)N(CC2CCCCC2)c2ccccc21 (single isomer, unassigned; isomer 1)
Result block: 5.57

Query block: Returns the measured pKi for the input molecule. Input: O=C(Nc1ccc(F)cc1)NC1C(=O)N(CCN2CCOCC2)c2ccccc2N(CC23CC4CC(CC(C4)C2)C3)C1=O (single isomer, unassigned; (-))
Result block: 5.99

Query block: Returns the measured pKi for the input molecule. Input: CCN(CC)CCN1C(=O)C(NC(=O)Nc2ccccc2)C(=O)N(CC2CCCCC2)c2ccccc21 (racemic)
Result block: 5.82

This collection of values is drawn from ChEMBL document CHEMBL1806366.
